Assay: A CellTox Green Cytotoxicity Assay to monitor cytotoxicity in HEK293 cells - 32 hour (AID 1224881); note: nearly all actives have a fitted effect of over 40% in size
Conditions: CellTox Green fluorescence; series mostly up to 76.8 µM
Inconclusive results are not listed. Active and inactive are the calls of the source. Calls come from the whole dose curve; as a rule, active = well fitted activation curve with a large enough effect in the repeat runs; inconclusive = weak or mixed curves; inactive = flat fitted curve, though single readings scatter.
One label from this list, please: Yes for active, No for inactive

input: Would you mind telling me which call this test gave CC(C)c1ccc(O)c(C(C)C)c1 ?
output: Yes

input: Would you mind telling me which call this test gave C[C@@]12C(=O)OC(=O)[C@]1(C)C1CCC2O1 ?
output: No

input: Would you mind telling me which call this test gave CNC(=O)c1cc(Oc2ccc(NC(=O)Nc3ccc(Cl)c(C(F)(F)F)c3)cc2)ccn1 ?
output: No

input: Would you mind telling me which call this test gave CCOC(=O)N1CCC(=C2c3ccc(Cl)cc3CCc3cccnc32)CC1 ?
output: No

input: Would you mind telling me which call this test gave ClC/C=C\CCl ?
output: No

input: Would you mind telling me which call this test gave Clc1ccccc1CN1CCc2sccc2C1 ?
output: No

input: Would you mind telling me which call this test gave CN(C)c1ccc(N=Nc2ccccc2C(=O)O)cc1 ?
output: No

input: Would you mind telling me which call this test gave C=C(C)CCCC ?
output: No

input: Would you mind telling me which call this test gave Cc1occc1SSc1ccoc1C ?
output: Yes

input: Would you mind telling me which call this test gave CCCCCCCCCCCCCCNCCO ?
output: Yes

input: Would you mind telling me which call this test gave CC(=O)O[C@@H]1C[C@@H]2CC[C@@]1(C)C2(C)C ?
output: No

input: Would you mind telling me which call this test gave CC(CN(C)C)CN1c2ccccc2CCc2ccccc21 (centres undefined) ?
output: No

input: Would you mind telling me which call this test gave CCOC(/C=C(\C)CCC=C(C)C)OCC ?
output: No

input: Would you mind telling me which call this test gave [O]=[Zr] ?
output: No

* * *

Assay: A CellTox Green Cytotoxicity Assay to monitor cytotoxicity in HepG2 cells - 40 hour (AID 1224879); note: nearly all actives have a fitted effect of over 40% in size
Details: CellTox Green fluorescence; series mostly up to 76.8 µM
Results filed as inconclusive are left out. Active and inactive are the calls of the source. Calls follow the shape of the dose curve; as a rule, active = well fitted activation curve with a large enough effect in the repeat runs; inconclusive = weak or mixed curves; inactive = flat fitted curve, though single readings scatter.
One label from this list, please: active, inactive

input: Would you mind telling me which call this test gave COc1ccc(C#N)cc1 ?
output: inactive

input: Would you mind telling me which call this test gave C=C[C@](C)(O)CC[C@@H]1[C@@]2(C)CCCC(C)(C)[C@@H]2CC[C@@]1(C)O ?
output: active

input: Would you mind telling me which call this test gave COC(=O)CC(C)CCC=C(C)C (stereo not given) ?
output: inactive

input: Would you mind telling me which call this test gave CCCC(O)C(O)CO (stereo not given) ?
output: inactive

input: Would you mind telling me which call this test gave COC(=O)CC#N ?
output: inactive

input: Would you mind telling me which call this test gave CCOCOCC ?
output: inactive

input: Would you mind telling me which call this test gave S=P(N1CC1)(N1CC1)N1CC1 ?
output: inactive

input: Would you mind telling me which call this test gave Cc1c(C(=O)O)cccc1[N+](=O)[O-] ?
output: inactive

input: Would you mind telling me which call this test gave CCN(CC)c1cccc(C)c1 ?
output: inactive

input: Would you mind telling me which call this test gave CC(C)c1cccc(C(C)C)c1N1C(=O)c2ccc(O)cc2C1=O ?
output: active

input: Would you mind telling me which call this test gave ClC/C=C\CCl ?
output: inactive

input: Would you mind telling me which call this test gave C=CCCCCCCC=C ?
output: inactive

input: Would you mind telling me which call this test gave CCOC(=O)C1=C(C)NC(C)=C(C(=O)OCC)C1c1ccccc1/C=C/C(=O)OC(C)(C)C ?
output: inactive

input: Would you mind telling me which call this test gave CC(=O)c1ccccc1N ?
output: inactive

input: Would you mind telling me which call this test gave c1ccc2c(c1)CCC2 ?
output: inactive
